Test system: SN12C renal
assay: NCI-60 one-dose screen, 48 h
test_context: 10 µM unless noted
The panel holds about 83,000 compounds, 20% with a hit somewhere; the sample as a whole holds those more often. Calls of active or inactive are those of the source. Rule for the calls: active = growth percent below 10; inactive = the rest.
Outcome codes: active, inactive

# molecule, label_class
data = [
    ("COc1ccc2c(c1)Oc1nc(N)c(C#N)c(N)c1C2Sc1ccc(SC)cc1 (stereo unspecified)", "inactive"),
    ("Nc1c(C(=O)Nc2ccccn2)sc2nc3c(cc12)C(=O)CCC3", "inactive"),
    ("N#Cc1c(-c2ccc(F)cc2)nc(N=Nc2c(O)[nH]c3ccc(Cl)cc23)nc1N1CCOCC1", "active"),
    ("COc1ccc([C@H]2[C@@H](F)C(=O)N2c2cc(OC)c(OC)c(OC)c2)cc1F", "inactive"),
    ("CC(/C=C/c1ccccc1)=N/NC(=O)c1ccncc1", "inactive"),
    ("C=CCn1c(SCC(=O)Nc2ccc(C(=O)/C=C/c3cc(OC)c(OC)c(OC)c3)cc2)nnc1-c1ccccc1", "inactive"),
    ("COc1ccc(/C=C/C(=O)Nc2ncnc3nc[nH]c23)cc1", "inactive"),
    ("Cc1cccc(C)c1NC(=O)CN(CC(C)C)CC(O)COc1ccccc1 (stereo unspecified)", "inactive"),
    ("NCCCn1c2c(c3cc(-c4ccn[nH]4)ccc3c1=O)C(=O)c1ccccc1-2", "inactive"),
    ("Nc1c(C(=O)Nc2ccccc2Cl)sc2nc3c(cc12)CN(Cc1ccccc1)CC3", "inactive"),
    ("CC1CCN(CCCCCOc2ccc3oc4cc(Cl)ccc4c(=O)c3c2)CC1", "inactive"),
]
